- tested_on: MRGPRX4 (Homo sapiens, UniProt Q96LA9)
- Sequence (Q96LA9 whole entry): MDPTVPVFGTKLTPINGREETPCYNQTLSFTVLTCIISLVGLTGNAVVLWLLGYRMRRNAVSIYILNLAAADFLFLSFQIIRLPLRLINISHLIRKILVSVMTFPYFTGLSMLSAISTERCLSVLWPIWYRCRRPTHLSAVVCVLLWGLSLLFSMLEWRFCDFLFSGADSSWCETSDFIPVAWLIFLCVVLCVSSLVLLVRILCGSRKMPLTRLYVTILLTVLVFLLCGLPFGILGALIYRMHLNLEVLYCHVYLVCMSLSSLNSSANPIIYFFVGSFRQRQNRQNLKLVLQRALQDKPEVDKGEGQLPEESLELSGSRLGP
- measurement_protocol: MRGPRX4 activation, Fluo-8 Ca2+ FLIPR assay in HEK293T cells stably expressing MRGPRX4
- Assay type: cell-based
- conditions: second E3-8-1, 4.6 nM, n = 2

| compound_string | unit_label | Activation (%) |
| --- | --- | --- |
| CC[C@H]1[C@@H](O)[C@@H]2[C@H](CC[C@]3(C)[C@@H]([C@H](C)COC(=O)NS(=O)(=O)c4ccc(N5CCCCC5)nc4)CC[C@@H]23)[C@@]2(C)CCCC[C@@H]12 | % | 2.86 |
| CC[C@H]1[C@@H](O)[C@@H]2[C@H](CC[C@]3(C)[C@@H]([C@H](C)CNC(=O)NS(=O)(=O)c4ccc(N5CCCCC5)nc4)CC[C@@H]23)[C@@]2(C)CCCC[C@@H]12 | % | 2.86 |
| CC[C@H]1[C@@H](O)[C@@H]2[C@H](CC[C@]3(C)[C@@H]([C@H](C)COC(=O)NS(=O)(=O)c4ccc5c(c4)CCC(C)(C)O5)CC[C@@H]23)[C@@]2(C)CCCC[C@@H]12 | % | 3.17 |
| CC[C@H]1[C@@H](O)[C@@H]2[C@H](CC[C@]3(C)[C@@H]([C@H](C)COC(=O)NS(=O)(=O)c4ccc(C(C)(C)CF)cc4)CC[C@@H]23)[C@@]2(C)CCCC[C@@H]12 | % | 2.86 |

###

// reported MRGPRX4 activation, Average per item
- tested_on: MRGPRX4 (Homo sapiens)
- measurement_protocol: MRGPRX4 activation, Fluo-8 Ca2+ FLIPR assay in HEK293T cells stably expressing MRGPRX4
- Assay type: cell-based
- Design: key: fluorescence change dF/F0
- conditions: E3-6-2, 3rd of 6 concentration columns (head not in rows shown)

| compound | MRGPRX4 activation, Average |
| --- | --- |
| CCCCS(=O)(=O)NC(=O)NCC[C@@H](C)[C@H]1CC[C@H]2[C@@H]3[C@H](O)[C@H](CC)[C@@H]4CCCC[C@]4(C)[C@H]3CC[C@]12C | 0.017 |
| CC[C@H]1[C@@H](O)[C@@H]2[C@H](CC[C@]3(C)[C@@H]([C@H](C)CCNC(=O)NS(=O)(=O)N(C)C)CC[C@@H]23)[C@@]2(C)CCCC[C@@H]12 | 0.013 |
| CC[C@H]1[C@@H](O)[C@@H]2[C@H](CC[C@]3(C)[C@@H]([C@H](C)CCNC(=O)NS(=O)(=O)Cc4ccccc4)CC[C@@H]23)[C@@]2(C)CCCC[C@@H]12 | 0.030 |
| CC[C@H]1[C@@H](O)[C@@H]2[C@H](CC[C@]3(C)[C@@H]([C@H](C)CCNC(=O)NS(=O)(=O)N4CC5CC5C4)CC[C@@H]23)[C@@]2(C)CCCC[C@@H]12 (stereo partly shown) | 0.023 |

###

// reported MRGPRX4 activation, Ave. per item
- tested_on: MRGPRX4 (Homo sapiens, UniProt Q96LA9)
- measurement_protocol: MRGPRX4 activation, Fluo-8 Ca2+ FLIPR assay in HEK293T cells stably expressing MRGPRX4
- Assay type: cell-based
- Parameters: key: fluorescence change dF/F0
- conditions: E3-7, Conc. (Log[M]) −4

| compound | tested_on | MRGPRX4 activation, Ave. |
| --- | --- | --- |
| [2H]C1CC[C@@]2(C)[C@@H](C1)[C@@H](CC)[C@@H](O)[C@@H]1[C@@H]2CC[C@]2(C)[C@@H]([C@H](C)CCNC(=O)NS(=O)(=O)c3ccc(C(C)(C)CF)cc3)CC[C@@H]12 (stereo partly shown) | MRGPRX4 (Homo sapiens, UniProt Q96LA9) | −0.054 |
| CC[C@H]1[C@@H](O)[C@@H]2[C@H](CC[C@]3(C)[C@@H]([C@H](C)CCNC(=O)NS(=O)(=O)c4cc(F)ccc4F)CC[C@@H]23)[C@@]2(C)CCCC[C@@H]12 | MRGPRX4 (Homo sapiens, UniProt Q96LA9) | −0.027 |
| [2H]C1([2H])CC[C@@]2(C)[C@@H](C1)[C@@H](CC)[C@@H](O)[C@@H]1[C@@H]2CC[C@]2(C)[C@@H]([C@H](C)CCNC(=O)NS(=O)(=O)c3ccc(C(C)(C)CF)cc3)CC[C@@H]12 | MRGPRX4 (Homo sapiens, UniProt Q96LA9) | 0.000 |
| CC[C@H]1[C@@H](O)[C@@H]2[C@H](CC[C@]3(C)[C@@H]([C@H](C)CCNC(=O)C(=O)NS(=O)(=O)c4cc(F)cc(F)c4)CC[C@@H]23)[C@@]2(C)CCCC[C@@H]12 | MRGPRX4 (Homo sapiens, UniProt Q96LA9) | −0.041 |

###

- tested_on: MRGPRX4 (Homo sapiens)
- measurement_protocol: MRGPRX4 activation, Fluo-8 Ca2+ FLIPR assay in HEK293T cells stably expressing MRGPRX4
- Type: cell-based
- Set-up: key: fluorescence change dF/F0
- conditions: E3-9, Conc. (Log[M]) −7.8
// reported MRGPRX4 activation, Average per item

| compound_string | tested_on | MRGPRX4 activation, Average |
| --- | --- | --- |
| CC[C@H]1[C@@H](O)[C@@H]2[C@H](CC[C@]3(C)[C@@H]([C@H](C)CCNC(=O)NS(=O)(=O)c4cc(F)ccc4F)CC[C@@H]23)[C@@]2(C)CC[C@H](F)C[C@@H]12 | MRGPRX4 (Homo sapiens) | 0.016 |
| CC[C@H]1[C@@H](O)[C@@H]2[C@H](CC[C@]3(C)[C@@H]([C@H](C)CCN=C=S)CC[C@@H]23)[C@@]2(C)CCC(F)(F)C[C@@H]12 | MRGPRX4 (Homo sapiens) | 0.013 |
| CC[C@H]1[C@@H](O)[C@@H]2[C@H](CC[C@]3(C)[C@@H]([C@H](C)CCNC(=O)C(=O)NS(=O)(=O)c4cc(F)ccc4F)CC[C@@H]23)[C@@]2(C)CCCC[C@@H]12 | MRGPRX4 (Homo sapiens) | 0.011 |
| CC[C@H]1[C@@H](O)[C@@H]2[C@H](CC[C@]3(C)[C@@H]([C@H](C)CCNC(=O)NS(=O)(=O)c4ccc(C(C)(C)CF)cc4)CC[C@@H]23)[C@@]2(C)CCC(F)(F)C[C@@H]12 | MRGPRX4 (Homo sapiens) | 0.008 |
| CC[C@H]1[C@@H](O)[C@@H]2[C@H](CC[C@]3(C)[C@@H]([C@H](C)CCNC(=O)NS(=O)(=O)c4ccc(N5CCCCC5)nc4)CC[C@@H]23)[C@@]2(C)CCCC[C@@H]12 | MRGPRX4 (Homo sapiens) | 0.018 |
| CC[C@H]1[C@@H](O)[C@@H]2[C@H](CC[C@]3(C)[C@@H]([C@H](C)CCNS(=O)(=O)C[C@]45CC[C@H](CC4=O)C5(C)C)CC[C@@H]23)[C@@]2(C)CCCC[C@@H]12 | MRGPRX4 (Homo sapiens) | 0.020 |
| CC[C@H]1[C@@H](O)[C@@H]2[C@H](CC[C@]3(C)[C@@H]([C@H](C)CCNC(=O)NS(=O)(=O)c4cc(F)cc(F)c4)CC[C@@H]23)[C@@]2(C)CCC(F)(F)C[C@@H]12 | MRGPRX4 (Homo sapiens) | 0.012 |
| CCOC(=O)C(=O)NCC[C@@H](C)[C@H]1CC[C@H]2[C@@H]3[C@H](O)[C@H](CC)[C@@H]4CCCC[C@]4(C)[C@H]3CC[C@]12C | MRGPRX4 (Homo sapiens) | 0.008 |
| CC[C@H]1[C@@H](O)[C@@H]2[C@H](CC[C@]3(C)[C@@H]([C@H](C)CCNC(=O)C(=O)NS(=O)(=O)c4ccc(C(C)(C)CF)cc4)CC[C@@H]23)[C@@]2(C)CCCC[C@@H]12 | MRGPRX4 (Homo sapiens) | 0.011 |
| CC[C@H]1[C@@H](O)[C@@H]2[C@H](CC[C@]3(C)[C@@H]([C@H](C)CCNC(=O)NS(=O)(=O)c4ccc(C(C)(C)CF)cc4)CC[C@@H]23)[C@@]2(C)CC[C@H](F)C[C@@H]12 | MRGPRX4 (Homo sapiens) | 0.012 |
| CC[C@H]1[C@@H](O)[C@@H]2[C@H](CC[C@]3(C)[C@@H]([C@H](C)CCNS(=O)(=O)C4CC4)CC[C@@H]23)[C@@]2(C)CCCC[C@@H]12 | MRGPRX4 (Homo sapiens) | 0.020 |
| CC[C@H]1[C@@H](O)[C@@H]2[C@H](CC[C@]3(C)[C@@H]([C@H](C)CCNC(=O)NS(=O)(=O)c4cccs4)CC[C@@H]23)[C@@]2(C)CC[C@H](F)C[C@@H]12 | MRGPRX4 (Homo sapiens) | 0.018 |
| CC[C@H]1[C@@H](O)[C@@H]2[C@H](CC[C@]3(C)[C@@H]([C@H](C)CCNS(=O)(=O)CC(C)C)CC[C@@H]23)[C@@]2(C)CCCC[C@@H]12 | MRGPRX4 (Homo sapiens) | 0.020 |
